test: Metabolic stability in human hepatocyte assessed as parent compound remaining at 10 uM incubated for 240 mins by LC-MS/MS analysis; format: ADME, cell-based; conditions: hepatocytes, read-out: Stability
parameter: remaining at 4 h, 10 µM (%)
The reply should be a number in %, with the unit left off.

Recorded remaining at 4 h, 10 µM for `C#CCN(C)Cc1cccc(NC(=O)CCCCCCC(=O)NO)c1` , please?
83.3

###

biological target: Amine oxidase [flavin-containing] A (Homo sapiens, UniProt P21397); test: Inhibition of human full length recombinant MAO-A expressed in insect cells using kynuramine as substrate
Sequence (P21397 whole entry): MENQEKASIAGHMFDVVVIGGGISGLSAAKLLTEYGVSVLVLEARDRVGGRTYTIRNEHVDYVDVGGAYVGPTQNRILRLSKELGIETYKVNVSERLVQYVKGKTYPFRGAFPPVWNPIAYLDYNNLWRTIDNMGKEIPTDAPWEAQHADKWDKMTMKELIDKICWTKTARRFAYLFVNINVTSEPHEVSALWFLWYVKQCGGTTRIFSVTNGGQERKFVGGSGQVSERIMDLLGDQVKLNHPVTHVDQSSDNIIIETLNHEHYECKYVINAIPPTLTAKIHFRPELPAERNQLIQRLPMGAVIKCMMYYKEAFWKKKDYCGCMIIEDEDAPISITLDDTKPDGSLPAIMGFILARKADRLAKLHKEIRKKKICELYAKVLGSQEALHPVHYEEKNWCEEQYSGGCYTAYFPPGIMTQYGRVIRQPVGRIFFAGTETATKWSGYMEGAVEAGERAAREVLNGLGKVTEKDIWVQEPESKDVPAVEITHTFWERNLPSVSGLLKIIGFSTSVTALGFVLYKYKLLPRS
parameter: IC50 (µM)
The reply should be a number in µM, with the unit left off.

Recorded IC50 for `C#CCN(C)Cc1cccc(NC(=O)CCCCCCC(=O)NO)c1` , please?
0.79
